Test system: SR
assay.overview: NCI tumour cell line growth inhibition, 48 h
Calls of active or inactive are those of the source. Cut-off read from the data, not from the text of the source: active = GI50 up to about 1.1 µM and inactive = higher.
readout.label: GI50

Reference set (4 entries):
> print(dat)
                                   compound              result
1          Cc1ccc2c(c1)C(=O)c1ccc(C)nc1C2=O  34.1 µM (inactive)
2  C[C@@]12c3c4ccc(C=O)c3Oc3ccc(C=O)c(c31)Oc1c(C=O)ccc(c12)O4  2.96 µM (inactive)
3  CC(O)c1ccc(C(O)/C(=N\NC(=O)c2ccncc2)c2nc3ccc([N+](=O)[O-])cc3nc2O)cc1 (stereo not given)    75 µM (inactive)
4  NC(c1ccccc1)(C(F)(F)F)P1(=O)OC(=O)c2ccccc2O1 (stereo not given)  71.8 µM (inactive)

As a next step, examine the compound that follows.
Could you share what GI50 was measured for "CC(=O)Nn1cnc(C(=N)C#N)c1N" , tested on SR? > 100 µM (inactive)

Source of measurements: ChEMBL document CHEMBL1201862
